// data source = ChEMBL document CHEMBL4823315

target of assay: Cytochrome P450 2B6 (Homo sapiens)
Sequence (P20813 whole entry): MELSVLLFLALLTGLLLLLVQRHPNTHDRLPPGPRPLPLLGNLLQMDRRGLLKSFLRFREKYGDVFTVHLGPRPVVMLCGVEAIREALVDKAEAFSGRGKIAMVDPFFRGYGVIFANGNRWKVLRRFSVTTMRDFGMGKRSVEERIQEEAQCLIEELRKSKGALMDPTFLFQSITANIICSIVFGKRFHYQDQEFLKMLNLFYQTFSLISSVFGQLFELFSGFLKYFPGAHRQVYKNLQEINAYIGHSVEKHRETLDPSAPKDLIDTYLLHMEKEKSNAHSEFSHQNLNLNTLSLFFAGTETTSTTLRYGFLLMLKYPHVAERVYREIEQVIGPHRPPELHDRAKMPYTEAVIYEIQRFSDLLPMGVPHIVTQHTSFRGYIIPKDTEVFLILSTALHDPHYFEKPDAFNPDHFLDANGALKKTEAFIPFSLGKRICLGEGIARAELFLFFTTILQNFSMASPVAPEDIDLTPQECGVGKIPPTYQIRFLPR
observed property: IC50 (µM)
Write the answer as a number in µM, unit excluded.

Requested field: IC50. Item: Cn1cc(-c2ccc(F)c(C(F)(F)F)c2)nc1C1CCN(c2ncnc(N)c2-c2ccc(F)cc2)CC1
6.5

---

experiment: Clearance in CD-1 mouse at 5 mg/kg, po or 5 mg/kg, iv
Type: ADME, organism-based
details: in vivo
observed property: clearance
Answer shape: numeric part, then the unit.

Requested field: clearance. Item: NC(=O)c1c(N)ncnc1N1CCC(c2nc(-c3ccc(F)c(C(F)(F)F)c3)cn2CCN2CCC2)CC1
25 mL/min/kg

---

experiment: AUC in CD-1 mouse at 5 mg/kg, iv
Format: ADME, organism-based
Set-up: dose 5 mg/kg
details: in vivo
observed property: AUC (ng·h/mL)
Write the answer as a number in ng·h/mL, unit excluded.

Requested field: AUC. Item: NC(=O)c1c(N)ncnc1N1CCC(c2nc(-c3ccc(F)c(C(F)(F)F)c3)cn2CCN2CCC2)CC1
662

---

experiment: Toxicity in po dosed mouse xenografted with human MDA-MB-436 cells administered daily
Type: organism-based
details: in vivo
observed property: MTD

Requested field: MTD. Item: NC(=O)c1c(N)ncnc1N1CCC(c2nc(-c3ccc(F)c(C(F)(F)F)c3)cn2CCN2CCC2)CC1
≤ 200 mg/kg

---

experiment: Cmax in CD-1 mouse at 5 mg/kg, po
Type: ADME, organism-based
Design: route oral, dose 5 mg/kg
details: in vivo
observed property: Cmax
Answer shape: numeric part, then the unit.

Requested field: Cmax. Item: NC(=O)c1c(N)ncnc1N1CCC(c2nc(-c3ccc(F)c(C(F)(F)F)c3)cn2CCN2CCC2)CC1
57 ng/mL

---

experiment: Intrinsic clearance in mouse liver microsomes
Type: ADME, Microsome
details: read-out: CLH
observed property: microsomal CLint (µL/min/mg)
Write the answer as a number in µL/min/mg, unit excluded.

Requested field: microsomal CLint. Item: NC(=O)c1c(N)ncnc1N1CCC(c2nc(-c3ccc(F)c(C(F)(F)F)c3)cn2CCN2CCC2)CC1
11

Requested field: microsomal CLint. Item: Cn1cc(-c2ccc(F)c(C(F)(F)F)c2)nc1C1CCN(c2ncnc(N)c2-c2ccc(F)cc2)CC1
48
